This collection of values is drawn from patent US4277496A.

# System: gastric epithelium
# method_description: Influence on the gastro-intestinal tract (ulceration, pylorus-ligated, method of Shay et al.)
# Format: in vivo, rat (male Sprague Dawley)
# conditions_used: oral, 1 hour after administration; score 0=no hemorrhage sites to 6=perforated ulcer; control 3.0; dose mg/kg: phenylbutazone 75, ASA 100, XAA 120, XAA ester 196, TAA 60, TAA ester 84.5
If the reported Evaluation (ulceration of the gastric epithelium) equals or exceeds 5, assign criterion met. If not, assign criterion not met.

molecule | assigned_label
CC(C)(C)C(=O)OCOC(=O)c1ccccc1Nc1cccc(C(F)(F)F)c1 | criterion not met
CC(=O)Oc1ccccc1C(=O)O | criterion not met
CCCCC1C(=O)N(c2ccccc2)N(c2ccccc2)C1=O | criterion met
Cc1cccc(Nc2ccccc2C(=O)OCOC(=O)C(C)(C)C)c1C | criterion not met
Cc1cccc(Nc2ccccc2C(=O)O)c1C | criterion not met

* * *

# System: gastric epithelium
# method_description: Influence on the gastro-intestinal tract (ulceration, pylorus-ligated, method of Shay et al.)
# Type: in vivo, rat (male Sprague Dawley)
# conditions_used: increase over control (distilled water, 3.0); oral, 1 hour; dose mg/kg: phenylbutazone 75, ASA 100, XAA 120, XAA ester 196, TAA 60, TAA ester 84.5
If the reported Increase (of ulceration evaluation) equals or exceeds 0.6, assign class 1. If not, assign class 0.

compound | assigned_label
CCCCC1C(=O)N(c2ccccc2)N(c2ccccc2)C1=O [Phenylbutazone] | class 1
Cc1cccc(Nc2ccccc2C(=O)O)c1C [N-(2',3'-xylyl) anthranylic acid (XAA), N-(2',3'-xylyl) anthranylic acid] | class 1
Cc1cccc(Nc2ccccc2C(=O)OCOC(=O)C(C)(C)C)c1C | class 0
O=C(O)c1ccccc1Nc1cccc(C(F)(F)F)c1 [N-(3'-trifluorotolyl)-anthranylic acid] | class 1
CC(=O)Oc1ccccc1C(=O)O [Acetylsalicylic acid (ASA), Acetylsalicylic acid] | class 1

* * *

Examples of molecules with documented % Edema Inhibition, 3 hours follow.
# Tested on: Carrageenin induced edema
# method_description: Anti-inflammatory Activity (Carrageenin induced edema test)
# Assay type: in vivo, rat (male Sprague Dawley)
# conditions_used: oral, 30 min before carrageenin; 3 hours after carrageenin; dose mg/kg: ASA 100, XAA 120, XAA ester 196 (eq. 120 XAA), TAA 60, TAA ester 84.5 (eq. 60 TAA)
recorded_metric: % Edema Inhibition, 3 hours (%)

molecule | recorded_metric | numeric_readout
Cc1cccc(Nc2ccccc2C(=O)OCOC(=O)C(C)(C)C)c1C | % Edema Inhibition, 3 hours | 36.4
CC(C)(C)C(=O)OCOC(=O)c1ccccc1Nc1cccc(C(F)(F)F)c1 | % Edema Inhibition, 3 hours | 40.7
Cc1cccc(Nc2ccccc2C(=O)O)c1C | % Edema Inhibition, 3 hours | 24.7
CC(=O)Oc1ccccc1C(=O)O | % Edema Inhibition, 3 hours | 24.8
O=C(O)c1ccccc1Nc1cccc(C(F)(F)F)c1 | % Edema Inhibition, 3 hours | 29.3

* * *

# System: pain threshold for the inflamed feet (carrageenin)
# method_description: Analgesic Activity: Randall-Selitto's method
# Format: in vivo, mouse (male Rockland)
# conditions_used: oral, 30 min before carrageenin; hourly for 3 hours; relative potency (control 0); dose mg/kg: ASA 100, XAA 50, XAA ester 74 (eq. 50 XAA), TAA 50, TAA ester 82 (eq. 50 TAA)
recorded_metric: Relative strength, Randall-Selitto test

molecule | result
Cc1cccc(Nc2ccccc2C(=O)O)c1C [N-(2',3'-xylyl) anthranylic acid (XAA), N-(2',3'-xylyl) anthranylic acid] | 1.04
Cc1cccc(Nc2ccccc2C(=O)OCOC(=O)C(C)(C)C)c1C | 1.74
CC(C)(C)C(=O)OCOC(=O)c1ccccc1Nc1cccc(C(F)(F)F)c1 | 8.7
CC(=O)Oc1ccccc1C(=O)O [Acetylsalicylic acid (ASA), Acetylsalicylic acid] | 1.05
O=C(O)c1ccccc1Nc1cccc(C(F)(F)F)c1 [N-(3'-trifluorotolyl)-anthranylic acid] | 5.3
